experiment: Tmax in Sprague-Dawley rat at 10 mg/kg, po; type: ADME, organism-based; conditions: in vivo
QUANTITY: Tmax
Write the figure, then the unit, nothing else.

Just so you know, measured Tmax for CCCC[C@H](CN(O)C=O)C(=O)N1CC2(CC2)C[C@H]1C(=O)Nc1ncc(C)s1 came out at 34.8 min

Lab note: measured Tmax of CCCC[C@H](CN(O)C=O)C(=O)N1CC2(CC2)C[C@H]1C(=O)Nc1cc(C(C)(C)C)on1 was 34.8 min

response.value for CCCC[C@H](CN(O)C=O)C(=O)N1CC2(CC2)C[C@H]1c1nc2ccccc2[nH]1 (field: Tmax) = 15 min

Just so you know, measured Tmax for CCCC[C@H](CN(O)C=O)C(=O)N1CC2(CC2)C[C@H]1C(=O)Nc1ccc(C)c(Nc2nccc(-c3cccnc3)n2)c1 came out at 15 min

---

system: Staphylococcus epidermidis; assay: Antibacterial activity against methicillin-resistant Staphylococcus epidermidis 14-4; format: functional
Exercise: state measured MIC for each of the compounds provided.
# number only, unit µg/mL dropped from output

Item: CCCC[C@H](CN(O)C=O)C(=O)N1CC2(CC2)C[C@H]1C(=O)Nc1ncccc1F | System: Staphylococcus epidermidis | MIC: 0.5

Summary: Cc1nc(NNC(=O)[C@H](CC2CCCC2)CN(O)C=O)c(F)c(N2CCN3CCOC[C@@H]3C2)n1 , Staphylococcus epidermidis, MIC = 0.25

Field MIC (Staphylococcus epidermidis), entry CCCC[C@H](CN(O)C=O)C(=O)N1CC2(CC2)C[C@H]1C(=O)Nc1nccc(-c2cccnc2)n1 : 0.5

Here CCCC[C@H](CN(O)C=O)C(=O)N1CC2(CC2)C[C@H]1c1nc(-c2cccnc2)no1 was tested on Staphylococcus epidermidis, and its MIC came to 0.5

Short answer on Staphylococcus epidermidis for CCCC[C@H](CN(O)C=O)C(=O)N1CC2(CC2)C[C@H]1c1nnc2ccccn12 , MIC: 1

Origin of values: ChEMBL document CHEMBL3822420
